Target: human CCR8 with a SNAP-tag at the N-terminus (human, UniProt P51685 1-355, SNAP-tag labelled covalently with Lumi4-Terbium)
Assay: cell-based or functional assay
In this section we review reported % hCCR8 internalization with CCL1 300 nM, mAb 10 µg/ml (HTRF) values for a set of binders.
reported-metric: % hCCR8 internalization with CCL1 300 nM, mAb 10 µg/ml (HTRF) (%)

binder | endpoint-unit | experimental-result
Ref #1 (antibody, human IgG1, V domains shown, Benchmark; cloned into vectors encoding heavy and light chains of human IgG1, produced in CHO; also called TPP-21360 of WO 2021/260210) VH: EVQLLESGGGLVQPGGSLRLSCAASGFTFSSYGMHWVRQAPGKGLEWVSAINWNGGSTGYADSVKGRFTISRDNSKNTLYLQMNSLRAEDTAVYYCARGHHSGYDGRFFDYWGQGTLVTVSS VL: QSVLTQPPSVSGAPGQRVTISCTGSSSNIGAGYNVHWYQQLPGTAPKLLIYTNNRRPSGVPDRFSGSKSGTSASLAISGLRSEDEADYYCAAWDASLSGWVFGGGTKLTVL | % | 111
anti-CCR8 mAb 1-23 (antibody, human IgG1, kappa, V domains shown, Humanized mAb, human IgG1 / kappa) VH: QVQLVQSGPEVVKPGASVKVSCKTSGYTFTEYTIHWVRQAPGQSLEWVGGINPNNGNTRYDQKFQGRVTITRDKSASTAYMELRSLTSEDTAVYYCARVARSSGSGPYAMDYWGQGTTVTVSS VL: DVVMTQSPLSLPVTLGDQASISCRCSQSLLHTNGDTYLHWYLQRPGQSPRLLIYKVSNRFSGVPDRFSGSGSGTDFTLKISRVEAEDVGVYFCSQSTHVPYTFGGGTKVEIKR | % | 29
anti-CCR8 mAb 1-22 (antibody, human IgG1, kappa, V domains shown, Humanized mAb, human IgG1 / kappa) VH: EVQLLESGGGLVQPGGSLRLSCAASGFTFNAYAMNWVRQAPGKGLEWVARIRSKSNDYATYYGDSVKGRFTISRDNSKNTLYLQMNSLRAEDTAVYYCVRGREAYYRYDGGYYAMDVWGQGTTVTVSS VL: DIVMTQSPLSLPVTPGEPASISCRSSKSLLHSNGNTYLYWFLQKPGQSPQLLIYRVSNLASGVPDRFSGSGSGTDFTLKISRVEAEDVGVYYCMQHREYPFTFGQGTKLEIKR | % | 52
